# testName: Correlation between IgE and T cell responses per donor
# Set-up: species or system human
# conditionParameters: IgE and T cell
readout: Donors with Responses to: Both

INSERT INTO results (molecule, observedresult) VALUES
  ('Bla g 7: German Cockroach allergen Bla g 7 (protein, listed as Blattella germanica) MDAIKKKMQAMKLEKDNAMDRALLCEQQARDANIRAEKAEEEARSLQKKIQQIENDLDQTMEQLMQVNAKLDEKDKALQNAESEVAALNRRIQLLEEDLERSEERLATATAKLAEASQAADESERARKILESKGLADEERMDALENQLKEARFMAEEADKKYDEVARKLAMVEADLERAEERAETGESKIVELEEELRVVGNNLKSLEVSEEKANLREEEYKQQIKTLNTRLKEAEARAEFAERSVQKLQKEVDRLEDELVHEKEKYKYICDDLDMTFTELIGN', 0);
